# System: transactivating tegument protein VP16 (Human herpesvirus 1)
# run_description: VP16 transactivation reporter inhibitors, counter-screen for SRC2 inhibitor project, cell-based, luminescence, single concentration (AID 652007)
# applied_conditions: cell-based VP16 transactivation luciferase reporter, at 8.9 µM
Calls of active or inactive are those of the source. Rule as the data show it: active = inhibition above about 36%; inactive = the rest.
Result category, one only: active, inactive

Query: Write down the call the test reported for this compound. Item: `O=C(Nc1ccc2nc3n(c(=O)c2c1)CCCCC3)c1c(F)ccc([N+](=O)[O-])c1F`
Reply: active

Query: Write down the call the test reported for this compound. Item: `CC(C)(C)c1ccccc1NC(=O)CN1C(=O)NC2(CCCC2)C1=O`
Reply: inactive

Query: Write down the call the test reported for this compound. Item: `COc1cc(C(=O)NCc2ccncc2)cc(Br)c1OCc1ccccc1`
Reply: inactive

Query: Write down the call the test reported for this compound. Item: Cc1ccc(NC(=O)C2CCC(C(C)(C)C)CC2)cc1S(=O)(=O)N1CCOCC1 (configuration not stated)
Reply: inactive

Query: Write down the call the test reported for this compound. Item: CC1(Cc2cccc(F)c2)C(=O)Nc2ccc(-c3cccnc3)cc21 (configuration not stated)
Reply: inactive

Query: Write down the call the test reported for this compound. Item: `CC(=C/c1ccccc1)/C=N/n1c(-c2ccncc2)n[nH]c1=S`
Reply: inactive

Query: Write down the call the test reported for this compound. Item: CCC1CSC(Nc2ccc(C(=O)/C=C/c3ccc(OC)c(OC)c3)cc2)=N1 (configuration not stated)
Reply: inactive
